- protocol-description: Metabolic stability in rat hepatocytes assessed as half life
Field: half-life. Provide a value for each of the compounds that follow.

Ask: Given the compound Cc1ccc(N(C)C(=O)c2ncn(-c3ccc(C)cc3)n2)cc1 , what is its reported half-life?
Result: < 7.5 min

Ask: Given the compound Cc1ccc(N(C)C(=O)c2ncn(-c3ccc(Cl)cc3)n2)cc1 , what is its reported half-life?
Result: < 7.5 min

Ask: Given the compound Cc1ccc(-c2cncc(C(=O)N(C)c3ccc(Cl)cc3)c2)cc1 , what is its reported half-life?
Result: < 7.5 min

###

- protocol-description: Cytotoxicity against human HepG2 cells measured after 72 hrs by hoechst 33342 staining based imaging assay
- Assay type: toxicity, cell-based
- measurement-context: read-out: pCC50 (converted)
Field: CC50 at 72 h. Provide a value for each of the molecules that follow.

Ask: Given the molecule Cc1ccc(C(=O)Nc2ncn(-c3ccc(C)cc3)n2)cc1 , what is its reported CC50 at 72 h?
Result: > 10 µM

Ask: Given the molecule Cc1ccc(N(C)C(=O)c2ncn(-c3ccc(C(C)C)cc3)n2)cc1C , what is its reported CC50 at 72 h?
Result: > 10 µM

Ask: Given the molecule CCc1ccc(-n2cnc(C(=O)N(C)c3ccc(C)c(C)c3)n2)cc1 , what is its reported CC50 at 72 h?
Result: > 10 µM

Ask: Given the molecule COc1ccc(N(C)C(=O)c2ncn(-c3ccc(C(C)C)cc3)n2)cc1 , what is its reported CC50 at 72 h?
Result: > 10 µM

Ask: Given the molecule CN(C(=O)c1ncn(-c2ccc(Cl)cc2)n1)c1ccc(F)cc1 , what is its reported CC50 at 72 h?
Result: > 10 µM

Ask: Given the molecule CCc1ccc(-n2cnc(C(=O)N(C)c3cccc(C)c3)n2)cc1 , what is its reported CC50 at 72 h?
Result: > 10 µM

Ask: Given the molecule O=C(Nc1ccc(Cl)cc1)c1ncn(-c2ccc(Cl)cc2)n1 , what is its reported CC50 at 72 h?
Result: > 10 µM

Ask: Given the molecule CN(C(=O)c1cnc(-c2ccc(Cl)cc2)s1)c1ccc(Cl)cc1 , what is its reported CC50 at 72 h?
Result: > 10 µM

Ask: Given the molecule O=C(Nc1ccc(F)cc1)c1ncn(-c2ccc(Cl)cc2)n1 , what is its reported CC50 at 72 h?
Result: > 10 µM

Ask: Given the molecule COc1ccc(N(C)C(=O)c2ncn(-c3ccc(Cl)cc3)n2)cc1 , what is its reported CC50 at 72 h?
Result: > 10 µM

Ask: Given the molecule CCc1ccc(-n2cnc(C(=O)N(C)c3ccc(OC)cc3)n2)cc1 , what is its reported CC50 at 72 h?
Result: > 10 µM

Ask: Given the molecule COc1ccc(-n2cnc(C(=O)N(C)c3ccc(Cl)cc3)n2)cc1 , what is its reported CC50 at 72 h?
Result: > 10 µM

Ask: Given the molecule O=C(Nc1ccc(C(F)(F)F)cc1)c1ncn(-c2ccc(Cl)cc2)n1 , what is its reported CC50 at 72 h?
Result: > 10 µM

Ask: Given the molecule CC(C)c1ccc(-n2cnc(C(=O)N(C)c3ccc(Cl)cc3)n2)cc1 , what is its reported CC50 at 72 h?
Result: > 10 µM

Ask: Given the molecule Cc1ccc(-c2cnc(C(=O)N(C)c3ccc(Cl)cc3)o2)cc1 , what is its reported CC50 at 72 h?
Result: > 10 µM

Ask: Given the molecule COc1ccc(-n2cnc(C(=O)N(C)c3ccc(C)c(C)c3)n2)cc1 , what is its reported CC50 at 72 h?
Result: > 10 µM

Ask: Given the molecule COc1ccc(N(C)C(=O)c2ncn(-c3ccc(OC)cc3)n2)cc1 , what is its reported CC50 at 72 h?
Result: > 10 µM

Ask: Given the molecule O=C(Nc1ncn(-c2ccc(Cl)cc2)n1)c1ccc(Cl)cc1 , what is its reported CC50 at 72 h?
Result: > 10 µM

Ask: Given the molecule Cc1ccc(N(C)C(=O)c2cn(-c3ccc(C)cc3)nn2)cc1 , what is its reported CC50 at 72 h?
Result: > 10 µM

Ask: Given the molecule Cc1ccc(-n2cnc(NC(=O)c3ccc(Cl)cc3)n2)cc1 , what is its reported CC50 at 72 h?
Result: > 10 µM

Ask: Given the molecule Cc1ccc(-c2cnc(C(=O)N(C)c3ccc(Cl)cc3)s2)cc1 , what is its reported CC50 at 72 h?
Result: > 10 µM

Ask: Given the molecule CN(C(=O)c1ncc(-c2ccc(Cl)cc2)s1)c1ccc(Cl)cc1 , what is its reported CC50 at 72 h?
Result: > 10 µM

Ask: Given the molecule Cc1ccc(-c2ccnc(C(=O)N(C)c3ccc(Cl)cc3)c2)cc1 , what is its reported CC50 at 72 h?
Result: > 10 µM
